experiment: qHTS for Inhibitors of human tyrosyl-DNA phosphodiesterase 1 (TDP1): qHTS in cells in presence of CPT; conditions: chicken DT40 Tdp1-/-;hTDP1 cells + 20 nM CPT, ATP luminescence, 48 h; series mostly up to 46.2 µM; also: nearly all actives have a fitted effect of over 55% in size
About 50,000 (12%) of roughly 420,000 compounds were called active. About 26% were inconclusive and are not listed. Calls follow the shape of the dose curve; as a rule, active = well fitted inhibition curve with a large enough effect; inconclusive = small, poorly fitted or top-dose-only effect; inactive = flat fitted curve, though single readings scatter. This is one part of a sample in which actives are shown more often than they occur.
# valid calls are active, inactive; nothing else

COc1cc2c(cc1OC)CC(=O)N(CCCN(C)C[C@H]1Cc3cc(OC)c(OC)cc31)CC2    inactive
COc1cccc(CNC(C)C(=O)Nc2ccc(S(=O)(=O)N3CCCC3)cc2)c1 (stereo not given)    inactive
COc1ccc(S(=O)(=O)N2CCN(C(C)C(=O)Nc3ccc(C(C)C)cc3)CC2)cc1 (stereo not given)    active
Cc1ccc(CNS(=O)(=O)CCNC(=O)c2ccccc2)cc1    inactive
Cc1onc(-c2c(F)cccc2Cl)c1C(=O)N(C)CC(=O)Nc1cccc(F)c1    inactive
COc1ccc(S(=O)(=O)N2CCN(C(=O)NC3CCCCC3)CC2)cc1    inactive
COCC(C)NC(=O)CSc1nc2nn(-c3ccccc3)c(=O)c-2c2n1CCCCC2 (stereo not given)    inactive
c1ccc(-c2cn3c(n2)CCc2ccc4cccnc4c2-3)cc1    active
COc1ccnc(Oc2ccccc2)c1-c1ncn[nH]1    inactive

Here's the next entry for you.
Short answer needed: outcome of this test for C#CCOCCOCCOCCNc1nc(N2CCN(C(=O)[C@H](CCC(=O)O)n3cc(CN)nn3)CC2)nc(N2CCN(C(=O)[C@H](CCC(=O)O)n3cc(CN)nn3)CC2)n1 ?
inactive

Entry source: PubChem BioAssay AID686979
